- experimental.protocol: Pharmacokinetic study (LC-MS/MS plasma concentration)
- Assay type: in vivo, Sprague-Dawley rats
- test.settings: female, Sprague-Dawley, rat, in vivo, ip, 40 mg/kg, ip 40 mg/kg, read-out: time of peak concentration (converted)
quantity: Tmax (min)
Output spec: scalar in min, unitless text.

Lookup result for CC=C(C)C(=O)OC1C2C(CC(C)C3C=CC(=O)C31C)OC(=O)C2C (stereo not shown) [6-OAP, 6-O-angeloylplenolin] ; measured Tmax: 48.8

====

- experimental.protocol: Pharmacokinetic study (LC-MS/MS plasma concentration)
- Type: in vivo, Sprague-Dawley rats
- test.settings: female, Sprague-Dawley, in vivo; ip (40 mg/kg), rat; read-out: BA (bioavailability)
quantity: bioavailability (%)
Use % as the unit, but write only the number.

The compound listed as CC=C(C)C(=O)OC1C2C(CC(C)C3C=CC(=O)C31C)OC(=O)C2C (stereo not shown) [6-OAP, 6-O-angeloylplenolin] shows bioavailability equal to 92.5

====

- experimental.protocol: Pharmacokinetic study (LC-MS/MS plasma concentration)
- Format: in vivo, Sprague-Dawley rats
- test.settings: female, Sprague-Dawley, rat, in vivo, ip, 40 mg/kg, ip (40 mg/kg), read-out: Tmax
quantity: Tmax (min)
// note: answer is a bare numeric in min

// Tmax lookup, compound = CC=C(C)C(=O)OC1C2C(CC(C)C3C=CC(=O)C31C)OC(=O)C2C (stereo not shown) , result: 48.8

====

- experimental.protocol: Pharmacokinetic study (LC-MS/MS plasma concentration)
- Format: in vivo, Sprague-Dawley rats
- test.settings: female, Sprague-Dawley, in vivo; ip (40 mg/kg), rat; read-out: MRT0-t
quantity: MRT last (h)
Field: numeric (h). Do not append units.

Entry CC=C(C)C(=O)OC1C2C(CC(C)C3C=CC(=O)C31C)OC(=O)C2C (stereo not shown) , MRT last reported as 5.75

====

- experimental.protocol: Pharmacokinetic study (LC-MS/MS plasma concentration)
- Format: in vivo, Sprague-Dawley rats
- test.settings: female, Sprague-Dawley, in vivo; iv (30 mg/kg), rat
quantity: Cmax (ng/mL)
Form entry: value (ng/mL) — number only.

So for CC=C(C)C(=O)OC1C2C(CC(C)C3C=CC(=O)C31C)OC(=O)C2C (stereo not shown) [6-OAP, 6-O-angeloylplenolin] , the logged Cmax turned out to be 16400
